Readings of Inhibition for the listed compounds
# Tested on: Toxoplasma gondii
# TEST_METHOD_NOTES: AntiToxoplasma gondii activity data 2-day killing assay: inhibition at 10 uM (%) Experiment E
# Type: functional
PARAMETER_MEASURED: Inhibition (%)

1) Cc1cc(NC(=O)c2ccc(Oc3ccc(Cl)cc3O)o2)no1; 22
2) CN1CCC(c2cc(-c3ccncc3)c(-c3ccc(F)cc3)[nH]2)CC1; 97.9
3) CC(C)(C)n1nc(-c2ccccc2)c2c(N)ncnc21; 97.5
4) Cc1cc2nc(NC(=O)C(C)(C)C)nc(Cl)c2n1Cc1ccc(Cl)cc1; 0
5) Nc1ncnc2c1c(-c1cnc3ccccc3c1)nn2CC1CCNCC1; 92.8
6) CS(=O)(=O)N1CCC(CCn2nc(Cc3cccc4ccccc34)c3c(N)ncnc32)CC1; 20.6
7) CC(=O)N1CCN(c2ccc(Oc3ccc(Cl)cc3O)cc2)CC1; 64.6
8) O=C(OCc1ccccc1)N1CCC(c2cc(-c3ccncc3)c(-c3ccc(F)cc3)[nH]2)CC1; 99.1
9) Nc1ncnc2[nH]nc(Cc3cccc4ccccc34)c12; 63.3

The origin of these recorded values is ChEMBL document CHEMBL3832761.
